Test system: Asp87Tyr mutant S. Typhimurium DNA gyrase (Salmonella typhimurium, UniProt P0A2I3+P37411, D87Y)
Construct: made in house; host or cells: Escherichia coli BL21(DE3)
Procedure summary: Fluoroquinolone-inhibited DNA supercoiling assay, GyrA Asp87Tyr DNA gyrase
Assay type: biochemical
Below: a set of entries, each annotated with reported pIC50.
Friendly reminder that pIC50 comes from taking -log10 of the concentration in mol/L.

Nc1nc(-n2cc(C(=O)O)c(=O)c3cc(F)c(N4CC(O)C4)c(Cl)c32)c(F)cc1F 7.17
Cc1c(N2CC(NC(C)C)C2)c(F)cc2c(=O)c(C(=O)O)cn(-c3nc(N)c(F)cc3F)c12 7.15

Lab note: next molecule to report on.
Item under review: `Cc1c(N2CC(O)C2)c(F)cc2c(=O)c(C(=O)O)cn(-c3nc(N)c(F)cc3F)c12` . Reported pIC50?
7.09
